Recorded z-score values for a group of sequences are listed next.
- test method notes: Components of the Cytosolic LPS Sensing Pathway: Gene Identification via Genome-wide siRNA Screen;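 note: robust z of the log signal after scaling to non-targeting control siRNA wells of the plate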
- experimental conditions: RAW264.7 macrophages, IL-1a HTRF, actives lie on both sides, screened at 100 nM (by protocol), cells primed 5 h with Pam3CSK4 first
- Method: Non-canonical inflammasome activation by cytosolic LPS is a critical component of the host response to Gram-negative bacterial infection, however we lack a comprehensive understanding of the cellular processes that control this pathway. […] Lipofectamine RNAiMAX Transfection Reagent ([…]; Invitrogen) was added in […] serum-free, antibiotic-free media to plate wells using a Thermo Scientific Matrix WellMate and Microplate Stacker. […] The plates were read on an EnVision plate reader (PerkinElmer). […]
The campaign covered roughly 53,000 sequences. About 3,700 (7%) were called active. Only a selection was taken, and actives are over-represented in it overall.
metric name: z-score

[[record]]
sequence_code = "GGGAACAAACCUUGAUUCUTT against Adam24"
metric_name = "z-score"
numeric_value = 3.49

[[record]]
sequence_code = "GGUUAUUCUGGUACAGGUUTT against Fndc3a"
metric_name = "z-score"
numeric_value = 0.191

[[record]]
sequence_code = "GGCAUGUAAUGAAUUCACATT against Pbx3"
metric_name = "z-score"
numeric_value = -2.14

[[record]]
sequence_code = "GGCAUUUUCACAAAAGACUTT against Rab23"
metric_name = "z-score"
numeric_value = -1.43

[[record]]
sequence_code = "CGCCGGAAGUUCUACCACUTT against Tmem205"
metric_name = "z-score"
numeric_value = 0.223

[[record]]
sequence_code = "CGCCCAUGUACAGAUUUGUTT against Olfr429"
metric_name = "z-score"
numeric_value = -2.33

[[record]]
sequence_code = "GGCUGAAAUAAAACAAGAATT against Use1"
metric_name = "z-score"
numeric_value = -0.778

[[record]]
sequence_code = "GGUGAACAGAAGGACAGAUTT against Gm4736"
metric_name = "z-score"
numeric_value = 0.479

[[record]]
sequence_code = "GCUCUUGACACUAGAGAUUTT against Ap1s3"
metric_name = "z-score"
numeric_value = 0.0373

[[record]]
sequence_code = "GCAGAGGGACAGUCUACAUTT against Rorc"
metric_name = "z-score"
numeric_value = -0.534

[[record]]
sequence_code = "CCUUACCAAUGUUCAUUUATT against Skint7"
metric_name = "z-score"
numeric_value = -0.32

[[record]]
sequence_code = "GGUGAGGUAGGUUACUCAGTT against Reps1"
metric_name = "z-score"
numeric_value = -2.16

[[record]]
sequence_code = "GGAGAUGAGCUGUAUGUGATT against Nudt19"
metric_name = "z-score"
numeric_value = 0.862

[[record]]
sequence_code = "GCCCGAAUACAGGAAGAUCTT against Hspg2"
metric_name = "z-score"
numeric_value = 1.42

[[record]]
sequence_code = "GCAGAUCAGUUGGUACAAGTT against Acss3"
metric_name = "z-score"
numeric_value = 0.0616

[[record]]
sequence_code = "GAGCCAAAUCAGGAACAGCTT against Trim29"
metric_name = "z-score"
numeric_value = 1.4

[[record]]
sequence_code = "GGGCUCCAAUUUGCUACCATT against Grp"
metric_name = "z-score"
numeric_value = 0.342


---

- test method notes: Components of the Cytosolic LPS Sensing Pathway: Gene Identification via Genome-wide siRNA Screen;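 note: robust z of the log signal after scaling to non-targeting control siRNA wells of the plate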
- experimental conditions: RAW264.7 macrophages, IL-1a HTRF, actives lie on both sides, screened at 100 nM (by protocol), cells primed 5 h with Pam3CSK4 first
Screen size: about 53,000 sequences; about 3,700 (7%) were called active.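 The calls were made as follows: active = gene knockdowns whose robust z-score for IL-1 alpha signal is at least 2 or at most -2, so actives lie on both sides; inactive = the rest.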 The sample as a whole holds a higher share of actives than the screen did.
Outcomes: t (active), f (inactive)

[[record]]
sequence_code = "GCUAACAACGUGUGCUUCUTT against Fam20a"
qualitative_label = "f"

[[record]]
sequence_code = "GGCCCUGUUGCUAUGUGUUTT against Map1s"
qualitative_label = "t"

[[record]]
sequence_code = "GGUCCUAUUUCGGAGCUUUTT against Tnfsf14"
qualitative_label = "f"

[[record]]
sequence_code = "GGAUAUGAACAAUAGCAUATT against Kcna1"
qualitative_label = "t"

[[record]]
sequence_code = "GCAUUAGAACAAAGGAUGCTT against Rps19"
qualitative_label = "f"

[[record]]
sequence_code = "GGAGAUAUCCAUCAAUAGUTT against Nbr1"
qualitative_label = "f"

[[record]]
sequence_code = "GGAUGAUGAGAGAAACAAATT against Jak1"
qualitative_label = "t"

[[record]]
sequence_code = "GGAUAAUUUAAACAUGGGATT against Cd276"
qualitative_label = "f"

[[record]]
sequence_code = "GGUUGAUGAAAAAACUGUATT against Itsn2"
qualitative_label = "f"

[[record]]
sequence_code = "GGAGAUUGGGAUCAAAGCCTT against Mthfd1"
qualitative_label = "f"

[[record]]
sequence_code = "GGACAGAUUUUCACCAUUCTT against Slc1a4"
qualitative_label = "f"

[[record]]
sequence_code = "GGAAUUUAGAAAAUGUGACTT against Vmn1r227"
qualitative_label = "t"

[[record]]
sequence_code = "GGACAAACAAGUGAAAUACTT against Morf4l1"
qualitative_label = "f"

[[record]]
sequence_code = "GGCUGAAGAGAUUGUCAAUTT against Aars"
qualitative_label = "f"

[[record]]
sequence_code = "GGCUUGUUCAAGAGAAGAUTT against Slc25a41"
qualitative_label = "f"

[[record]]
sequence_code = "GGUCUCGCUCCAAGGAAGATT against Tra2b"
qualitative_label = "t"

[[record]]
sequence_code = "UUCUAAUUGUCACUUGGUGTT against Olfr1474"
qualitative_label = "f"

[[record]]
sequence_code = "GGGUUCUUUUAGGUUGUCATT against Ccdc85a"
qualitative_label = "f"

[[record]]
sequence_code = "GGAACAAGUAAAAUUCGUCTT against Tssk2"
qualitative_label = "f"

[[record]]
sequence_code = "GGACAUUCUCAAAUCUUGATT against Praf2"
qualitative_label = "f"

[[record]]
sequence_code = "GCGGUAUGGCAUGGUACAUTT against LTO1"
qualitative_label = "f"

[[record]]
sequence_code = "GCUAGCCAUGGUUACCCACTT against Slc39a3"
qualitative_label = "f"

[[record]]
sequence_code = "GGUGAAUGGCAUGACCAUATT against Asb9"
qualitative_label = "f"

[[record]]
sequence_code = "GGAGGUUGAGGCUUCUAAGTT against Pacsin3"
qualitative_label = "f"

[[record]]
sequence_code = "CGAGAAGGAUAUAAUUGUUTT against Klhl18"
qualitative_label = "f"

[[record]]
sequence_code = "GGGAGUUUGAUUCUGACUCTT against Ank3"
qualitative_label = "f"

[[record]]
sequence_code = "CCAUGGGAUAUGAUUUACATT against Phf11a"
qualitative_label = "t"

[[record]]
sequence_code = "CCAUAUAUGAUAGGAAACUTT against Pon2"
qualitative_label = "f"

[[record]]
sequence_code = "CGAAGAGAGCUGCAUUAAATT against BC049715"
qualitative_label = "f"

[[record]]
sequence_code = "GGUGGUGAACUGUUUGACCTT against Pnck"
qualitative_label = "f"

[[record]]
sequence_code = "CGGGAAAUUUCUAUUGGACTT against Akr1c12"
qualitative_label = "f"

[[record]]
sequence_code = "GGAACAUUUUGGAAAUGACTT against Fbxo25"
qualitative_label = "f"

[[record]]
sequence_code = "GGAAGCAUCUCAUUAUUCATT against Lamp2"
qualitative_label = "f"

[[record]]
sequence_code = "GGGAUUCUCCAAAAGGAAGTT against Arhgap6"
qualitative_label = "f"

[[record]]
sequence_code = "GGCACUCUCAGCUUUUGACTT against Olfr2"
qualitative_label = "t"

[[record]]
sequence_code = "GGUGACUAGAAAAAUGGAUTT against Cd1d1"
qualitative_label = "f"

[[record]]
sequence_code = "GGGAAUCCUAGACAUGCUGTT against Nphp4"
qualitative_label = "f"

[[record]]
sequence_code = "GGUGAAAAGAGAUUUGAAUTT against Sp4"
qualitative_label = "f"


---

- test method notes: Components of the Cytosolic LPS Sensing Pathway: Gene Identification via Genome-wide siRNA Screen;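 note: robust z of the log signal after scaling to non-targeting control siRNA wells of the plate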
- experimental conditions: RAW264.7 macrophages, IL-1a HTRF, actives lie on both sides, screened at 100 nM (by protocol), cells primed 5 h with Pam3CSK4 first
Among all 53,000 sequences or so, about 3,700 (7%) were called active.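 How the source made its calls: active means gene knockdowns whose robust z-score for IL-1 alpha signal is at least 2 or at most -2, so actives lie on both sides; inactive means the rest.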 The entries come from a sample that favours actives as a whole.
Outcomes: active, inactive

[[record]]
sequence_code = "GGAUACGAGACAAUGAGAATT against Kctd2"
qualitative_label = "inactive"

[[record]]
sequence_code = "GGUCAAGGAAUUAGUGAUUTT against Tctex1d1"
qualitative_label = "inactive"

[[record]]
sequence_code = "GCUCGAUAUAAUUUCACACTT against Neto1"
qualitative_label = "inactive"

[[record]]
sequence_code = "GGGAAAAAUGGACUAGCAUTT against Ahctf1"
qualitative_label = "inactive"

[[record]]
sequence_code = "GGCUGUGAAAAAACUAGAATT against Serpina1e"
qualitative_label = "inactive"

[[record]]
sequence_code = "GGUUUGUCAGGUUCUAAAATT against Atf1"
qualitative_label = "active"

[[record]]
sequence_code = "GGAGAGUCCACUAAUACUGTT against Dmrt3"
qualitative_label = "inactive"

[[record]]
sequence_code = "CCCUGUAUAUAUGAUGACATT against Ldhd"
qualitative_label = "inactive"

[[record]]
sequence_code = "GCAAUUUUAGUUGGUGGAATT against Ddx24"
qualitative_label = "inactive"

[[record]]
sequence_code = "GGCUUUUAACACCUUCAUUTT against Clptm1l"
qualitative_label = "inactive"

